Molecular target: T1, human RXFP1 (human, UniProt Q9HBX9 1-757)
T1 sequence (looked up): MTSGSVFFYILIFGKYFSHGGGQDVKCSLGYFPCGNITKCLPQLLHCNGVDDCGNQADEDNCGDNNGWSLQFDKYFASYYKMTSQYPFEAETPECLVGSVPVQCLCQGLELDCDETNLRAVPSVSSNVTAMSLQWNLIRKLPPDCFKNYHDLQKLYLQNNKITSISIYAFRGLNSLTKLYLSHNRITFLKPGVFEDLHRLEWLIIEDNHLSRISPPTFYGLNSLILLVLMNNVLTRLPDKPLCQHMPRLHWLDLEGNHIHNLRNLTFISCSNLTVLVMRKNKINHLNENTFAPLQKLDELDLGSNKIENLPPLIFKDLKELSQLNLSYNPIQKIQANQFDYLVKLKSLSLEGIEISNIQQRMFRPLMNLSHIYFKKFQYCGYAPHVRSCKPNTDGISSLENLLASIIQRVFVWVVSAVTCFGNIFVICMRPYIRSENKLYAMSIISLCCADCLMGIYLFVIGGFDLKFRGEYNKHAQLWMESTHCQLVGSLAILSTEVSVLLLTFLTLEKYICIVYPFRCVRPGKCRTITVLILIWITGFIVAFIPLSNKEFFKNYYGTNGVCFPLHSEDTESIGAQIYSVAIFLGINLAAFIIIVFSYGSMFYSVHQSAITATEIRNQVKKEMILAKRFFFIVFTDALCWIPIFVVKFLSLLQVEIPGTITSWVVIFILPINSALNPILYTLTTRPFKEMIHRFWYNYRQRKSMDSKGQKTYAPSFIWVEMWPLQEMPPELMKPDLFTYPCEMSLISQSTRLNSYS
Experiment: cell-based or functional assay
Endpoint name: Potency (cAMP, transient hRXFP1 in HEK293)
Kindly write the number and append the unit.

{"Binder": "SEQ ID NO: 125 (Fc fusion) DKTHTCPPCPAPEAAGGPSVFLFPPKPKDTLMISRTPEVTCVVVDVSHEDPEVKFNWYVDGVEVHNAKTKPREEQYNSTYRVVSVLTVLHQDWLNGKEYKCKVSNKALAAPIEKTISKAKGQPREPQVYTLPPSRDELTKNQVSLTCLVKGFYPSDIAVEWESNGQPENNYKTTPPVLDSDGSFFLYSKLTVDKSRWQQGNVFSCSVLHEALHSHYTQKSLSLSPGKGGSDSWQEEVIKLCGRELVRAQIAICGKSTASDAAGAEAEAGARQLYSALANKCCQVGCTKRSLAQFC", "Result": "11.1 nM"}
{"Binder": "SEQ ID NO: 137 (Fc fusion) DKTHTCPPCPAPEAAGGPSVFLFPPKPKDTLMISRTPEVTCVVVDVSHEDPEVKFNWYVDGVEVHNAKTKPREEQYNSTYRVVSVLTVLHQDWLNGKEYKCKVSNKALAAPIEKTISKAKGQPREPQVYTLPPSRDELTKNQVSLTCLVKGFYPSDIAVEWESNGQPENNYKTTPPVLDSDGSFFLYSKLTVDKSRWQQGNVFSCSVLHEALHSHYTQKSLSLSPGKGGSDSYQEEVIKLCGRELVRAQIAICGKSTGGEGSGGEGSGGGRQLYSALANKCCYVGCTKQSLAQFC", "Result": "11.4 nM"}
{"Binder": "SEQ ID NO: 129 (Fc fusion) DKTHTCPPCPAPEAAGGPSVFLFPPKPKDTLMISRTPEVTCVVVDVSHEDPEVKFNWYVDGVEVHNAKTKPREEQYNSTYRVVSVLTVLHQDWLNGKEYKCKVSNKALAAPIEKTISKAKGQPREPQVYTLPPSRDELTKNQVSLTCLVKGFYPSDIAVEWESNGQPENNYKTTPPVLDSDGSFFLYSKLTVDKSRWQQGNVFSCSVLHEALHSHYTQKSLSLSPGEGGSDSYQEEVIKLCGRELVRAQIAICGKSTGGEGSGGEGEGGGRQLYSALANKCCYVGCTKRSLAQFC", "Result": "42.4 nM"}

# input for lookup
[Q] Query (binder): SEQ ID NO: 138 (Fc fusion) DKTHTCPPCPAPEAAGGPSVFLFPPKPKDTLMISRTPEVTCVVVDVSHEDPEVKFNWYVDGVEVHNAKTKPREEQYNSTYRVVSVLTVLHQDWLNGKEYKCKVSNKALAAPIEKTISKAKGQPREPQVYTLPPSRDELTKNQVSLTCLVKGFYPSDIAVEWESNGQPENNYKTTPPVLDSDGSFFLYSKLTVDKSRWQQGNVFSCSVLHEALHSHYTQKSLSLSPGKGGSDSYQEEVIKLCGRELVRAQIAICGKSTGGEGSGGEGSGGGRQLYSALANKCCKVGCTKQSLAQFC ; field requested: Potency (cAMP, transient hRXFP1 in HEK293)
[A] 7.5 nM
